The reported numbers originate from PubChem BioAssay AID602156.

Test system: P. yoelii liver stage in HepG2-A16-CD81EGFP, imaging
Assay: exo-erythrocytic parasite development inhibition – imaging, Malaria Box, P. yoelii, HepG2-A16-CD81EGFP, dose response (AID 602156);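 note: infected cells exposed to compound for 48 hours before fixation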
Activity calls are given as the source filed them. The rule behind the calls is not given here.
Give one outcome, nothing more. List: t (active), f (inactive)

Outcome? N#Cc1c2c(c(N3CCN(Cc4ccccc4)CC3)n3c1nc1ccccc13)CCC2 f

Record request — test call for CCC(=O)NC(c1ccccc1Cl)c1cc(Cl)c2cccnc2c1O (centres undefined) t

For CCOc1ccc(Nc2nc(NCc3ccco3)c3ccccc3n2)cc1 , what call appears in the results of this test? t

Hi team, can someone confirm the assay call for CC(C)c1nc(N2CCN(C(=O)Nc3ccccc3)CC2)c(C#N)c2c1COC(C)(C)C2 ? t

---

Test system: P. yoelii liver stage in HepG2-A16-CD81EGFP, imaging
Assay: exo-erythrocytic parasite development inhibition – imaging, Malaria Box, P. yoelii, HepG2-A16-CD81EGFP, dose response (AID 602156);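 note: infected cells exposed to compound for 48 hours before fixation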
The source made the active and inactive calls. How the calls were made is not given here.
Outcomes you can answer with include only these: y for active, n for inactive

Which outcome was assigned to O=C1c2ccccc2-n2c1nc1ccccc1c2=O in this test? y

Field: outcome | Entry: CCOC(=O)c1c(CNC)n(C)c2cc(Br)c(O)cc12 n

What is the recorded call for this compound in the test? CC1(C)C2CCC(C2)C1(C)NC(=S)NN=Cc1ccccn1 (stereo not given) y

Record request — test call for O=[N+]([O-])c1ccc(N2CCCN(C(=S)Nc3ccc(F)cc3Br)CC2)nc1 y

// outcome(item) with item = Brc1ccc(Nc2nc(NCc3ccco3)c3ccccc3n2)cc1 y

---

Test system: P. yoelii liver stage in HepG2-A16-CD81EGFP, imaging
Assay: exo-erythrocytic parasite development inhibition – imaging, Malaria Box, P. yoelii, HepG2-A16-CD81EGFP, dose response (AID 602156);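 note: infected cells exposed to compound for 48 hours before fixation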
Active and inactive are the calls of the source. The rule behind the calls is not given here.
Would you mind answering with one of these outcomes? active, inactive

What call does the record list for Nc1nonc1-n1nnc(C(=O)NN=Cc2ccc(F)c(Br)c2)c1-c1ccc([N+](=O)[O-])cc1 ? inactive

Per the records of this test, what outcome belongs to CC(=O)N(C)C1=C(N2CCOCC2)C(=O)c2ccccc2C1=O ? active

Answer briefly: the call reported for O=C(c1cccs1)N1CCN(c2ccc([N+](=O)[O-])c(NC3CC3)c2)CC1 in this assay. active

Please let me know the test result on file for CCOc1ccc(N2C(N)=NC(N)=NC2(C)C)cc1 . active

# lookup: test call for CN(C)c1oc(-c2ccc(Cl)cc2Cl)nc1[P+](c1ccccc1)(c1ccccc1)c1ccccc1 active

---

Test system: P. yoelii liver stage in HepG2-A16-CD81EGFP, imaging
Experiment: exo-erythrocytic parasite development inhibition – imaging, Malaria Box, P. yoelii, HepG2-A16-CD81EGFP, dose response (AID 602156);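 note: infected cells exposed to compound for 48 hours before fixation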
Active and inactive are the calls of the source. No rule for the calls is given here.
The reply should be one of these categories: true (active), false (inactive)

In this assay, the call recorded for CCCCCc1c(C)c(C#N)c2nc3ccccc3n2c1NCCN(CC)CC was what? true

Fill in: this test's call for CCCCSc1oc(C)nc1[P+](c1ccccc1)(c1ccccc1)c1ccccc1 is ___ true

Hi, do you know how COc1ccc(C(NC(=O)c2cccnc2)c2cc(Cl)c3cccnc3c2O)cc1 (stereo not given) came out in this test? true

Outcome logged for CCOC(=O)c1cnc2ccc(OC)cc2c1Cl in this assay: true

For Cn1cnnc1SCC(=O)Nc1ccccc1C(F)(F)F , which call appears in the assay record? false

Short answer needed: outcome of this test for CCCC1(CCC)NC(=S)N(c2ccc(C)c(C)c2)N1 ? false

Check the results log: what was the call for CCC(/C=C1\Sc2ccc(OC)cc2N1CCCS(=O)(=O)O)=C\c1sc2ccc(OC)cc2[n+]1CCCS(=O)(=O)O ? true

Please state the recorded outcome for this compound: CCOc1ccc2[nH]c(=O)c(CN(CCN(CC)CC)C(=S)NCCCN(CC)CC)cc2c1 true

Which outcome did this test record for the compound CCOC(=O)c1c[nH]c2ccc(C(C)C)cc2c1=O ? true

Can you look up the reported call for CCN(CC)CCN(Cc1cc2ccc(C)cc2[nH]c1=O)C(=S)NC(C)c1ccccc1 (stereo not given) for me? true

Which outcome did this test record for the compound O=C(c1cccc(Cl)c1)N1CCN(c2ccc([N+](=O)[O-])c(NC3CC3)c2)CC1 ? true

Recorded test call requested for Cc1nc2cc(-c3ccc(I)cc3)[nH]n2c(=O)c1C true

What is the recorded call for this compound in the test? Cc1[nH]c2ccc(Br)cc2c(=O)c1CC(C)C true

Can you look up the reported call for CCCCN(CCCC)S(=O)(=O)c1ccc(NC(=O)c2ccco2)cc1 for me? true

Fill in: this test's call for O=C(C1CC1)N1CCc2cc(Br)cc(S(=O)(=O)N3CCCC3)c21 is ___ false

---

Provide the recorded pIC50 for the entries that follow.
Test system: P. yoelii liver stage in HepG2-A16-CD81EGFP, imaging
Experiment: exo-erythrocytic parasite development inhibition – imaging, Malaria Box, P. yoelii, HepG2-A16-CD81EGFP, dose response (AID 602156);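 note: infected cells exposed to compound for 48 hours before fixation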
// returns pIC50 (minus log10 of molar concentration), number only

Form field pIC50, entry CCC(C)(C)c1ccc(OCCCC[n+]2cccc(C)c2C)c(C(C)(C)CC)c1 : 7.34

Reported pIC50 for CCCCCCCn1c2c(c(=N)c3ccccc31)CCC2 was 7.12

The recorded pIC50 for Oc1cccc(Nc2nc(NCC3CCCO3)c3ccccc3n2)c1 (configuration not stated) is 5.98

What the record says about CC(C)NC(=O)c1cc(NC(=O)c2cccs2)ccc1N1CCc2ccccc2C1 : pIC50 is 7.13

Field pIC50 (entry Cc1cc(OC(C)C(=O)N2CCc3ccccc32)ccc1Cl (configuration not stated) ) reads 6.11

The recorded pIC50 for CC[n+]1cc(-c2ccc(C)cc2)sc1C=C1Sc2ccccc2N1C is 8.35

Data point: Cc1cn2c3ccccc3n(CCN3CCCC3)c2n1 ; pIC50 = 5.97

---

Can you tell me IC50 for the items I'm about to list?
Tested on: P. yoelii liver stage in HepG2-A16-CD81EGFP, imaging
Experiment: exo-erythrocytic parasite development inhibition – imaging, Malaria Box, P. yoelii, HepG2-A16-CD81EGFP, dose response (AID 602156);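 note: infected cells exposed to compound for 48 hours before fixation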
Active and inactive are the calls of the source. The rule behind the calls is not given here.

Recorded IC50 (compound Cc1ccc(Nc2nc3c(N)nnc(N)c3nc2Nc2ccc(C)cc2)cc1 ): 488 nM

For reference, reported IC50 for CCC(C)Nc1nc(NC(C)CC)nc(N2CCCCCC2)n1 (configuration not stated) stands at 300 nM

Lab note: O=c1c2c([nH]c3ccccc13)CCCCCCCCCC2 gave IC50 of 99 nM

The recorded IC50 for entry COc1ccc(-c2n(CC(=O)OC3CC(C)CCC3C(C)C)c3ccccc3[n+]2C)cc1 (configuration not stated) equals 156 nM

Consider O=C(Nc1c2ccccc2nc2ccccc12)c1cc(Cl)ccc1O . Its measured IC50 is 181 nM

response.value for Cc1c(Cl)cccc1N1C(=O)C2C3c4ccccc4C(c4ccccc43)C2C1=O (configuration not stated) (field: IC50) = > 10000 nM (inactive)

IC50 reading for COc1ccc(C2CC(=O)C3=C(C2)NC(C)=C(C(=O)OC2CCCC2)C3c2ccc([N+](=O)[O-])cc2)cc1OC (configuration not stated) : 3920 nM

The recorded IC50 for entry C[C@@H]1CCC[C@@H](C[C@H]2Cc3cc(O)cc(O)c3C(=O)O2)O1 equals 112 nM

Consider O=C(Nc1ccc(-c2nc3ccccc3[nH]2)cc1)c1ccc(-c2ccc(Cl)cc2)o1 . Its measured IC50 is 6650 nM

Just so you know, measured IC50 for COc1cccc(-c2cncc(-c3cncc(OC)c3)n2)c1 came out at > 10000 nM (inactive)

Short answer for CC[n+]1c(/C=C/N(C)c2ccccc2)n(-c2ccccc2)c2ccc(-c3nc4ccccc4s3)cc21 : IC50 was 14 nM

Lab note: O=C(Nc1ccc(Oc2cccc(Oc3ccc(NC(=O)c4ccc(Br)o4)cc3)c2)cc1)c1ccc(Br)o1 gave IC50 of 433 nM

Quick note, IC50 for CC1(C)N=C(N)N=C(N)N1c1ccc(Oc2ccc(Cl)cc2)c(Cl)c1 landed at 73 nM

Lab book: IC50 of CCCN[P+](CC(C)C)(NCCC)NCCC noted as 281 nM

Input CCCCCCCCn1c(C)[n+](C)c2cc(Cl)c(Cl)cc21 . Output IC50: 419 nM

Per the records, this compound ( CN(C)c1ccc(C(C=C2C=C(c3ccccc3)C=C(c3ccccc3)O2)=C2C=CC(=[N+](C)C)C=C2)cc1 ) has IC50 equal to 51.9 nM

// IC50 lookup, compound = O=C1C2=C(Nc3ccccc3SC2c2cccs2)c2ccccc21 (configuration not stated) , result: 90.4 nM

Measured IC50, c1ccc2cc3c(N4CCN(CCN5CCN(c6ccnc7cc8ccccc8cc67)CC5)CC4)ccnc3cc2c1 : 2910 nM

Lab note: measured IC50 of CCCCCCN(C(=O)c1ccc(C(C)(C)C)cc1)C(CC)c1nc2ccccc2c(=O)n1-c1ccc(F)cc1 (configuration not stated) was > 6910 nM (inactive)

Notebook: CCN(CC)c1ccc(N=Cc2ccc(Sc3nc4ccccc4s3)o2)cc1 , IC50 read as > 10000 nM (inactive)

The reported IC50 of the compound CCc1nc(N)nc(N)c1-c1ccc(Cl)cc1 was 2.15 nM

IC50 in this record for CCCCc1c(C)[nH]c2ccc(Br)cc2c1=O : 64.7 nM

So, COc1ccc(C2N(Cc3ccccc3)c3ccccc3N2Cc2ccccc2)cc1 ? Its IC50 was 121 nM

Entry under test: Fc1ccccc1Nc1nc(NCc2ccccc2)c2ccccc2n1 . Its IC50 was 690 nM

For record Cc1oc2c(c1C(=O)NCCCn1ccnc1)C(=O)c1ccccc1C2=O the listed IC50 is 119 nM

Consider CC(=O)N1c2ccc(C)cc2C(C)(c2ccccc2)CC1(C)C (configuration not stated) . Its measured IC50 is 1250 nM

CC[n+]1c(C=C2C=Cc3cc(C)ccc3N2C)sc(C)c1C yielded IC50 of 11.3 nM

Form: compound = Cc1ccc(-c2cc3nc4c(c(=O)n3[nH]2)CCCC4)cc1 ; IC50 = 75.3 nM

IC50 reading for CCCCN(CC)CCNC(=O)C1c2ccccc2C(=O)N(Cc2ccc(F)cc2)C1c1ccc(OC)cc1 (configuration not stated) : 89.1 nM

compound CCOC(=O)c1cnc2ccc(OC)cc2c1NCc1cccs1 , IC50 observed: 193 nM

IC50 measured on CC1(C)N=C(N)N=C(N)N1c1ccc(F)cc1 = 18.9 nM

IC50 for Cc1ccc(-c2[nH]n3c(=O)c4c(nc3c2C)CCCC4)cc1 is 11.3 nM
